Tested on: E. coli V66 Hfr conjugation, recombinant frequency by colony plating
Experiment: inhibitors of RecBCD-driven recombination, late-stage follow-up, counter-screen for AddAB inhibitor project, colony formation, V66 E. coli, provider lab (AID 623918)
Hi there, I'd appreciate the recorded IC50 for every entry that follows.

Worked examples follow.
For the record "O=C(Nc1ncccn1)c1ccc([N+](=O)[O-])o1" , what value of IC50 is listed for E. coli V66 Hfr conjugation, recombinant frequency by colony plating? 0.03 µM

For the record "CCn1cc(C(=O)O)c(=O)c2cnc(N3CCN(C(=S)Nc4cccc(C(F)(F)F)c4)CC3)nc21" , what value of IC50 is listed for E. coli V66 Hfr conjugation, recombinant frequency by colony plating? 0.1 µM

For the record "C=CCn1c(Sc2ncc([N+](=O)[O-])s2)n[nH]c1=O" , what value of IC50 is listed for E. coli V66 Hfr conjugation, recombinant frequency by colony plating? < 1 µM

For the record "CCn1cc(C(=O)O)c(=O)c2cnc(N3CCN(C(=S)Nc4ccccc4C(F)(F)F)CC3)nc21" , what value of IC50 is listed for E. coli V66 Hfr conjugation, recombinant frequency by colony plating? < 1 µM

For the record "CCn1cc(C(=O)O)c(=O)c2cc(F)c(N3CCN(C(=S)Nc4cccc(C(F)(F)F)c4)CC3)cc21" , what value of IC50 is listed for E. coli V66 Hfr conjugation, recombinant frequency by colony plating? < 1 µM

Field: IC50. Fill in for each record below.
1. O=C(NCc1cccnc1)c1ccc([N+](=O)[O-])o1
2. CCn1cc(C(=O)O)c(=O)c2cnc(N3CCNCC3)nc21

1. < 0.1 µM
2. < 0.1 µM
